Item-by-item account of pIC50
Target: human PAD4 (Homo sapiens, UniProt Q9UM07)
Construct: human PAD4 (NM_012387), A2P663, was PCR amplified; His-SUMO (N, cleaved yes)
Sequence (Q9UM07 2-663): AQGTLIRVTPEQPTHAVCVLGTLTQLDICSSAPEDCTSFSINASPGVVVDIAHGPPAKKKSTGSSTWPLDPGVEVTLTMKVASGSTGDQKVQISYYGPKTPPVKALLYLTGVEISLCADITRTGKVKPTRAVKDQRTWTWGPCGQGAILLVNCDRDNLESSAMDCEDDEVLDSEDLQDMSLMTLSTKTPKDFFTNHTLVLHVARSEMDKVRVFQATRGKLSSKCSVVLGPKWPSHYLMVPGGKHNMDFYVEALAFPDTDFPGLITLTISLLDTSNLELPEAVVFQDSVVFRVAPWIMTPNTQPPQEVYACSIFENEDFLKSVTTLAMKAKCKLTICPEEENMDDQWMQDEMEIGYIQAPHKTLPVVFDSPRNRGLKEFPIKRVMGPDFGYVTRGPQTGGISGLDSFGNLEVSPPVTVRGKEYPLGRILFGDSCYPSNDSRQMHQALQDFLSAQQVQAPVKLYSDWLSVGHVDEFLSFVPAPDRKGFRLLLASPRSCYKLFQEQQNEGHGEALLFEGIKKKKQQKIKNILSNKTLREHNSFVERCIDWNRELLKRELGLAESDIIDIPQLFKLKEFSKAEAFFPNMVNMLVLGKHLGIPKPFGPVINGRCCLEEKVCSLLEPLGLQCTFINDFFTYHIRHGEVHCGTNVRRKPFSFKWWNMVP
Assay: In vitro PAD4 BAEE biochemical assay
Settings: human PAD4, BAEE substrate; 5 nM PAD4, 2 mM calcium chloride, 3 mM BAEE; geometric mean of multiple experiments
Reminder that pIC50 is minus the log10 of a molar concentration.

The cases that follow already have their pIC50 on record.
COc1cc(C(=O)N2CCC[C@@H](N)C2)cc2nc(-c3cc4ccc(Cl)nc4n3CC3CC3)c(C)n12: 5.72
COc1cc(C(=O)N2[C@H]3CC[C@@H]2[C@H](N)C3)cc2nc(-c3cc4ccc([C@@H](C)NC(=O)N5CC6C(C5)C6(F)F)nc4n3CC3CC3)c(C)n12 (stereo partly drawn): 7.42
COc1cc(C(=O)N2C[C@H]3CC[C@@H]2[C@H](N)C3)cc2nc(-c3cc4ccc(N(C(F)F)S(C)(=O)=O)nc4n3CC3CC3)c(C)n12 (single isomer, unassigned) [Example 369]: 4.87
COc1cc(C(=O)N(C)C2CCCNC2)cc2nc(-c3cc4ccc(N(C(F)F)S(C)(=O)=O)nc4n3CC3CC3)c(C)n12 (stereo not drawn): 5.31
CCc1ccc2cc(-c3nc4cc(C(=O)N5CCC[C@@H](N)C5)ccn4c3C3CC3)n(CC3CC3)c2n1: 6.52
COc1cc(C(=O)N2[C@H]3CC[C@@H]2[C@H](N)C3)cc2nc(-c3cc4ccc([C@@H](C)NC(=O)C5(O)CCCC5)nc4n3CC3CC3)c(C)n12: 7.35

Q: Fill in the blank: the reported pIC50 of "C=CCC(=O)N[C@H](C)c1ccc2cc(-c3nc4cc(C(=O)N5[C@H]6CC[C@@H]5[C@H](N)C6)cc(OC)n4c3C)n(CC3CC3)c2n1" is ____.
Result: 7.41

---

Item-by-item account of IC50
Molecular target: human PAD4 (Homo sapiens, UniProt Q9UM07)
Construct: human PAD4 (NM_012387), A2P663, was PCR amplified; His-SUMO (N, cleaved yes); made in house; host or cells: E. coli BL21(DE3)
Test: In vitro PAD4 BAEE biochemical assay
Details: human PAD4, BAEE substrate; 5 nM PAD4, 2 mM calcium chloride, 3 mM BAEE; geometric mean of multiple experiments
Give just the numeric value; µM need not be written.

COc1cc(C(=O)N2[C@H]3CC[C@@H]2[C@H](N)C3)cc2nc(-c3cc4ccc([C@@H](C)NC(=O)C(C)(C)OC)nc4n3CC3CC3)c(C)n12: 0.0983
COc1cc(C(=O)N2[C@H]3CC[C@@H]2[C@H](N)C3)cc2nc(-c3cc4ccc(N5C[C@H](C)OCS5(=O)=O)nc4n3CC3CC3)c(C)n12: 0.0731
COc1cc(C(=O)N2C[C@H]3CC[C@@H]2[C@@H]3N)cc2nc(-c3cc4ccc([C@@H](C)Nc5ncccn5)nc4n3CC3CC3)c(C)n12: 0.341
COc1cc(C(=O)N2[C@H]3CC[C@@H]2[C@H](N)[C@H](O)C3)cc2nc(-c3cc4ccc(N(C(F)F)S(C)(=O)=O)nc4n3CC3CC3)c(C)n12 [Example 311]: 0.383
COc1cc(C(=O)N2CCC[C@@H](N)C2)cc2nc(-c3cc4ccc([C@@H](C)NC(=O)OCC(C)(C)C)nc4n3CC3CC3)c(C)n12: 0.486

Q: Fill in the blank: the reported IC50 of "COc1cc(C(=O)N2CCC[C@@H](N)C2)cc2nc(-c3cc4ccc(-c5cccnc5C)nc4n3CC3CC3)c(C)n12" is ____.
Result: 0.427
